- Test system: MILI (PIWIL2) piRISC loaded with L1MC piRNA (26 nt);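 also: 1 nM active piRISC with 0.1 nM target library at 33 °C single turnover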
- ASSAY_NAME: pre-steady-state target cleavage rate (min^-1); guide: L1MC piRNA 5'p-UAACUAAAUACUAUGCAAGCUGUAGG; MIWI and MILI are mouse PIWI proteins and EfPiwi is from a freshwater sponge; tags in brackets are library labels; higher = faster piRNA-guided slicing of the target
- RECORDED_CONDITIONS: auxiliary factor: none (no GTSF1)
I would appreciate it if you labelled entries Met when pre-steady-state target cleavage rate is 0.008 or higher, otherwise Not met.

>  <SEQ>
UCCUGGAACAAGCUUGCAUAGUAUUUAGUUA

>  <TARGET_UNDER_TEST>
MILI (PIWIL2) piRISC loaded with L1MC piRNA (26 nt);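 also: 1 nM active piRISC with 0.1 nM target library at 33 °C single turnover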

>  <ASSIGNED_LABEL>
Met

$$$$
>  <SEQ>
UCCUGGUAGAGCUUGCAUUGUAUUUAGUUA

>  <TARGET_UNDER_TEST>
MILI (PIWIL2) piRISC loaded with L1MC piRNA (26 nt);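 also: 1 nM active piRISC with 0.1 nM target library at 33 °C single turnover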

>  <ASSIGNED_LABEL>
Not met

$$$$
>  <SEQ>
UCCUGCUUCAGCUUGCAUAGUAUUUUGUUA

>  <TARGET_UNDER_TEST>
MILI (PIWIL2) piRISC loaded with L1MC piRNA (26 nt);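 also: 1 nM active piRISC with 0.1 nM target library at 33 °C single turnover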

>  <ASSIGNED_LABEL>
Not met

$$$$
>  <SEQ>
UCCUCCUACAGCUUGCUAAGUAUUUAGUUA

>  <TARGET_UNDER_TEST>
MILI (PIWIL2) piRISC loaded with L1MC piRNA (26 nt);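 also: 1 nM active piRISC with 0.1 nM target library at 33 °C single turnover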

>  <ASSIGNED_LABEL>
Not met

$$$$
>  <SEQ>
UCCUGCUACAGCUUGCAUAGUAUUCUAGUUA

>  <TARGET_UNDER_TEST>
MILI (PIWIL2) piRISC loaded with L1MC piRNA (26 nt);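 also: 1 nM active piRISC with 0.1 nM target library at 33 °C single turnover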

>  <ASSIGNED_LABEL>
Not met

$$$$
>  <SEQ>
UCCUGGAUGUCGAUGCAUAGUACUUAGUUA

>  <TARGET_UNDER_TEST>
MILI (PIWIL2) piRISC loaded with L1MC piRNA (26 nt);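 also: 1 nM active piRISC with 0.1 nM target library at 33 °C single turnover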

>  <ASSIGNED_LABEL>
Not met

$$$$
>  <SEQ>
UCCUGCAACAGCUUGCAAAGUAUUUAGUUA

>  <TARGET_UNDER_TEST>
MILI (PIWIL2) piRISC loaded with L1MC piRNA (26 nt);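 also: 1 nM active piRISC with 0.1 nM target library at 33 °C single turnover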

>  <ASSIGNED_LABEL>
Not met

$$$$
>  <SEQ>
UCCUGGAUCUGCAUGCAUAGUAUUUAGUUA

>  <TARGET_UNDER_TEST>
MILI (PIWIL2) piRISC loaded with L1MC piRNA (26 nt);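 also: 1 nM active piRISC with 0.1 nM target library at 33 °C single turnover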

>  <ASSIGNED_LABEL>
Met

$$$$
>  <SEQ>
UCCUGGAUGAGGUAGCAUAGUAUUUAGUUA

>  <TARGET_UNDER_TEST>
MILI (PIWIL2) piRISC loaded with L1MC piRNA (26 nt);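 also: 1 nM active piRISC with 0.1 nM target library at 33 °C single turnover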

>  <ASSIGNED_LABEL>
Not met

$$$$
>  <SEQ>
UCCUGGAACAGCUUGCAUGGUAUUUAGUUA

>  <TARGET_UNDER_TEST>
MILI (PIWIL2) piRISC loaded with L1MC piRNA (26 nt);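 also: 1 nM active piRISC with 0.1 nM target library at 33 °C single turnover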

>  <ASSIGNED_LABEL>
Met

$$$$
>  <SEQ>
UCCUGGAACACGUUGCAUAGUAUUUAGUUA

>  <TARGET_UNDER_TEST>
MILI (PIWIL2) piRISC loaded with L1MC piRNA (26 nt);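 also: 1 nM active piRISC with 0.1 nM target library at 33 °C single turnover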

>  <ASSIGNED_LABEL>
Met

$$$$
>  <SEQ>
UCCUGGAUGUGCAUGCAUAGUAUUUUGUUA

>  <TARGET_UNDER_TEST>
MILI (PIWIL2) piRISC loaded with L1MC piRNA (26 nt);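 also: 1 nM active piRISC with 0.1 nM target library at 33 °C single turnover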

>  <ASSIGNED_LABEL>
Not met

$$$$
